Would you kindly list Ki for each of these compounds?
Biological target: Neuronal acetylcholine receptor subunit alpha-7 (Rattus norvegicus)
Sequence (Q05941 whole entry): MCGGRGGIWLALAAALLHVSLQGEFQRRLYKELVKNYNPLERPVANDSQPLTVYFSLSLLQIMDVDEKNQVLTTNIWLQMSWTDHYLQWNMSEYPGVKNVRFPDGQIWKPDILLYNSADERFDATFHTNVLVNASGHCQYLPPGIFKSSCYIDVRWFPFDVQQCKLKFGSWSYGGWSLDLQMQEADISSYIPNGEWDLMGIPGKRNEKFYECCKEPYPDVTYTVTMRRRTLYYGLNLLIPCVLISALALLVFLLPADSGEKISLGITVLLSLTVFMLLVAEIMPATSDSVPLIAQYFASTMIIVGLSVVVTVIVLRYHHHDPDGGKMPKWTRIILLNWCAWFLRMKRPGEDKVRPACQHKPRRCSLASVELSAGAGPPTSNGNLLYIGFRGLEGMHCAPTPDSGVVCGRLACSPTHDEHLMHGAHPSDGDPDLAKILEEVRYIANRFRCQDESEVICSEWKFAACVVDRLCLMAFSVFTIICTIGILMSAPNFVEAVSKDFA
Test: Inhibition of [125I]- iodo-MLA binding at the Nicotinic acetylcholine receptor alpha-7 (nAChR) in male rat cerebral cortex
Answers are plain numbers, in nM.

> print(dat)
                                   compound  observed
1  Nc1cc([C@H]2CC3CCC2N3)cnc1Cl (stereo not given in full)      13.9
2  Fc1cc(C2CC3CCC2N3)cnc1Cl (stereo not given)      3.43
3  Clc1cc([C@H]2CC3CCC2N3)cnc1Cl (stereo not given in full)      1.12
4  Nc1ncc([C@H]2CC3CCC2N3)cc1I (stereo not given in full)      34.1

Let us examine a further case.
The recorded Ki for entry Oc1ccc([C@H]2CC3CCC2N3)cn1 (stereo not given in full) equals 675
